study_target: [35S]-TBPS binding, rat brain cortical membranes
assay: Steroid inhibition of [35S]-TBPS binding
experimental_parameters: 3 nM [35S]-TBPS, in the presence of 5 mM GABA
pIC50: −log10 of the molar value.
Catalogue of pIC50 values

>  <mol>
COC[C@@]1(O)CC[C@H]2[C@H](CC[C@@H]3[C@@H]2CC[C@]2(C)[C@@H]([C@@H](C)NC(=O)c4ccc(C#N)cc4F)CC[C@@H]32)C1

>  <endpoint_value>
> 7.00

$$$$

(Q) # value lookup — system [35S]-TBPS binding, rat brain cortical membranes, readout pIC50, item C[C@@]1(O)CC[C@H]2[C@H](CC[C@@H]3[C@@H]2CC[C@]2(C)[C@@H]([C@@H](C#N)Cn4cc(C#N)cn4)CC[C@@H]32)C1
(A) > 7.00

(Q) # value lookup — system [35S]-TBPS binding, rat brain cortical membranes, readout pIC50, item CCOC[C@@]1(O)CC[C@H]2[C@H](CC[C@@H]3[C@@H]2CC[C@]2(C)[C@@H]([C@@H](C)Cc4cccc(C#N)n4)CC[C@@H]32)C1
(A) > 7.00

----------
study_target: [35S]-TBPS binding, rat brain cortical membranes
assay: Steroid inhibition of [35S]-TBPS binding
experimental_parameters: 3 nM [35S]-TBPS, in the presence of 5 mM GABA
Catalogue of IC50 values

>  <mol>
COC[C@@]1(O)CC[C@H]2[C@@H](CC[C@@H]3[C@@H]2CC[C@]2(C)[C@@H](CCn4nccn4)CC[C@@H]32)C1

>  <study_target>
[35S]-TBPS binding, rat brain cortical membranes

>  <experimental_endpoint>
IC50

>  <endpoint_value>
< 100 nM

$$$$

(Q) What measured IC50 goes with C[C@@H](NC(=O)c1ccc(F)cn1)[C@H]1CC[C@H]2[C@@H]3CC[C@@H]4C[C@](C)(O)CC[C@@H]4[C@H]3CC[C@]12C ?
(A) 100 to 1000 nM

(Q) What measured IC50 goes with CCOC[C@@]1(O)CC[C@H]2[C@H](CC[C@@H]3[C@@H]2CC[C@]2(C)[C@@H]([C@@H](C)N(C)S(=O)(=O)c4ccc(C#N)cc4)CC[C@@H]32)C1 ?
(A) < 100 nM

----------
study_target: [35S]-TBPS binding, rat brain cortical membranes
assay: Steroid inhibition of [35S]-TBPS binding
experimental_parameters: 3 nM [35S]-TBPS, in the presence of 5 mM GABA
pIC50: −log10 of the molar value.
experimental_endpoint: pIC50

>  <mol>
CC[C@@]1(O)CC[C@H]2[C@@H](CC[C@@H]3[C@@H]2CC[C@]2(C)[C@@H]([C@@H](C)Cn4nnnc4C)CC[C@@H]32)C1

>  <pIC50>
6.00 to 7.00

$$$$

Now examine the next entry.
(Q) What measured pIC50 goes with CCC[C@@]1(O)CC[C@@]2(C)[C@H](CC[C@@H]3[C@@H]2CC[C@]2(C)[C@@H]([C@H](C)Cn4cc(C#N)cn4)CC[C@@H]32)C1 ?
(A) > 7.00

----------
study_target: [35S]-TBPS binding, rat brain cortical membranes
assay: Steroid inhibition of [35S]-TBPS binding
experimental_parameters: 3 nM [35S]-TBPS, in the presence of 5 mM GABA
pIC50: −log10 of the molar value.
experimental_endpoint: pIC50

Consider the worked cases shown below.
>  <compound>
C[C@H](NC(=O)c1ccc(F)cc1)[C@H]1CC[C@H]2[C@@H]3CC[C@@H]4C[C@](C)(O)CC[C@@H]4[C@H]3CC[C@]12C [Example 117]

>  <study_target>
[35S]-TBPS binding, rat brain cortical membranes

>  <pIC50>
5.00 to 6.00

$$$$
>  <compound>
COC[C@@]1(O)CC[C@H]2[C@H](CC[C@@H]3[C@@H]2CC[C@]2(C)[C@@H]([C@@H](C)NC(=O)c4ccc(C#N)cn4)CC[C@@H]32)C1 [Example 31]

>  <study_target>
[35S]-TBPS binding, rat brain cortical membranes

>  <pIC50>
6.00 to 7.00

$$$$
>  <compound>
COC[C@@]1(O)CC[C@H]2[C@H](CC[C@@H]3[C@@H]2CC[C@]2(C)[C@@H]([C@@H](C)NC(=O)c4ccc(OC(F)(F)F)cn4)CC[C@@H]32)C1 [Example 128]

>  <study_target>
[35S]-TBPS binding, rat brain cortical membranes

>  <pIC50>
6.00 to 7.00

$$$$
>  <compound>
CCOC[C@@]1(O)CC[C@@]2(C)[C@H](CC[C@@H]3[C@@H]2CC[C@]2(C)[C@@H]([C@@H](C)Cn4ccc(C#N)n4)CC[C@@H]32)C1 [Example 279]

>  <study_target>
[35S]-TBPS binding, rat brain cortical membranes

>  <pIC50>
> 7.00

$$$$

(Q) What measured pIC50 goes with CCOC[C@@]1(O)CC[C@H]2[C@H](CC[C@@H]3[C@@H]2CC[C@]2(C)[C@@H]([C@H](C)Cn4nccc4C#N)CC[C@@H]32)C1 [Example 286] ?
(A) > 7.00

----------
study_target: [35S]-TBPS binding, rat brain cortical membranes
assay: Steroid inhibition of [35S]-TBPS binding
experimental_parameters: 3 nM [35S]-TBPS, in the presence of 5 mM GABA
experimental_endpoint: IC50

>  <mol>
C[C@H](Cn1cc(C#N)cn1)[C@H]1CC[C@H]2[C@@H]3CC[C@@H]4C[C@@](O)(C5CC5)CC[C@@H]4[C@H]3CC[C@]12C

>  <study_target>
[35S]-TBPS binding, rat brain cortical membranes

>  <IC50>
100 to 1000 nM

$$$$

(Q) # value lookup — system [35S]-TBPS binding, rat brain cortical membranes, readout IC50, item COC[C@@]1(O)CC[C@H]2[C@H](CC[C@@H]3[C@@H]2CC[C@]2(C)[C@@H]([C@@H](C)Nc4ccc(C#N)cn4)CC[C@@H]32)C1
(A) 100 to 1000 nM

(Q) # value lookup — system [35S]-TBPS binding, rat brain cortical membranes, readout IC50, item COC[C@@]1(O)CC[C@H]2[C@H](CC[C@@H]3[C@@H]2CC[C@]2(C)[C@@H](CCn4nnnc4C)CC[C@@H]32)C1
(A) < 100 nM

----------
study_target: [35S]-TBPS binding, rat brain cortical membranes
assay: Steroid inhibition of [35S]-TBPS binding
experimental_parameters: 3 nM [35S]-TBPS, in the presence of 5 mM GABA
experimental_endpoint: IC50

Consider the worked cases shown below.
>  <mol>
CCC[C@@]1(O)CC[C@H]2[C@H](CC[C@@H]3[C@@H]2CC[C@]2(C)[C@@H]([C@H](C)Cc4ccc(C#N)nc4)CC[C@@H]32)C1

>  <IC50>
< 0.1 µM

$$$$
>  <mol>
C[C@H]([C@H]1CC[C@H]2[C@@H]3CC[C@@H]4C[C@](C)(O)CC[C@@H]4[C@H]3CC[C@]12C)n1nccn1

>  <IC50>
0.1 to 1 µM

$$$$
>  <mol>
CCOC[C@@]1(O)CC[C@H]2[C@H](CC[C@@H]3[C@@H]2CC[C@]2(C)[C@@H]([C@@H](C)Cc4cccc(C#N)c4)CC[C@@H]32)C1

>  <IC50>
< 0.1 µM

$$$$

(Q) # value lookup — system [35S]-TBPS binding, rat brain cortical membranes, readout IC50, item C[C@H]([C@H]1CC[C@H]2[C@@H]3CC[C@@H]4C[C@](C)(O)CC[C@@H]4[C@H]3CC[C@]12C)N(C)c1ccccc1
(A) 0.1 to 1 µM

(Q) # value lookup — system [35S]-TBPS binding, rat brain cortical membranes, readout IC50, item CCOC[C@@]1(O)CC[C@H]2[C@H](CC[C@@H]3[C@@H]2CC[C@]2(C)[C@@H]([C@H](Cn4cc(C#N)cn4)C(F)(F)F)CC[C@@H]32)C1
(A) 0.1 to 1 µM

----------
study_target: [35S]-TBPS binding, rat brain cortical membranes
assay: Steroid inhibition of [35S]-TBPS binding
experimental_parameters: 3 nM [35S]-TBPS, in the presence of 5 mM GABA
pIC50: −log10 of the molar value.
Catalogue of pIC50 values

>  <molecule>
C[C@@H](NC(=O)c1ccccn1)[C@H]1CC[C@H]2[C@@H]3CC[C@@H]4C[C@](C)(O)CC[C@@H]4[C@H]3CC[C@]12C [Example 100]

>  <endpoint_value>
6.00 to 7.00

$$$$
>  <molecule>
C[C@@H](Cc1nccc(C#N)n1)[C@H]1CC[C@H]2[C@@H]3CC[C@@H]4C[C@](C)(O)CC[C@@H]4[C@H]3CC[C@]12C [Example 435]

>  <endpoint_value>
> 7.00

$$$$

(Q) What measured pIC50 goes with COC[C@@]1(O)CC[C@H]2[C@H](CC[C@@H]3[C@@H]2CC[C@]2(C)[C@@H]([C@@H](C)Cc4ccc(C#N)nc4)CC[C@@H]32)C1 [Example 404] ?
(A) > 7.00

(Q) What measured pIC50 goes with CCC[C@@]1(O)CC[C@H]2[C@H](CC[C@@H]3[C@@H]2CC[C@]2(C)[C@@H]([C@@H](C)Cn4nnnc4C)CC[C@@H]32)C1 [Example 324] ?
(A) > 7.00

(Q) What measured pIC50 goes with C[C@H](Nc1cccc(C#N)c1)[C@H]1CC[C@H]2[C@@H]3CC[C@@H]4C[C@](C)(O)CC[C@@H]4[C@H]3CC[C@]12C [Example 201] ?
(A) 6.00 to 7.00
